Origin of measurements: patent US9957271B2

- target.under.test: SIRT1 (Homo sapiens)
- Sequence (Q96EB6 1-747): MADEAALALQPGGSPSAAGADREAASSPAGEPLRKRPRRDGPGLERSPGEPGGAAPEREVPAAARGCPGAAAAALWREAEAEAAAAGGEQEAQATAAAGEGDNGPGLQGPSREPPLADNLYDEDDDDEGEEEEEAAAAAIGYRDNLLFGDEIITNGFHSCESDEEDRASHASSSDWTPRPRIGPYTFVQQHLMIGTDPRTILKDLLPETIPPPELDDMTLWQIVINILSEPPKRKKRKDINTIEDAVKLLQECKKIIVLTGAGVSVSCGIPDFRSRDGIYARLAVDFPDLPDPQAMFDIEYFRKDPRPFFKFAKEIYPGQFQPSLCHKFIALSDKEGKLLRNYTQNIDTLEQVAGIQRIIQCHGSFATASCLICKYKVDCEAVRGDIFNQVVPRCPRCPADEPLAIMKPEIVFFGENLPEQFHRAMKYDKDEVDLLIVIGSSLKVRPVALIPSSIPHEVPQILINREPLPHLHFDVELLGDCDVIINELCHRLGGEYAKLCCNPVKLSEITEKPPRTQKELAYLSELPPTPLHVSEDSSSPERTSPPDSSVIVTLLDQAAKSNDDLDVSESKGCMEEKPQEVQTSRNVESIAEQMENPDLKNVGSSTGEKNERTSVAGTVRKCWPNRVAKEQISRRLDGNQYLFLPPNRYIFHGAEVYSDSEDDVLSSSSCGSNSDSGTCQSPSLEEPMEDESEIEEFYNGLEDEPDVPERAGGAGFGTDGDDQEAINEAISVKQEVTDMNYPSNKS
- assay.procedure: Trp mass spectrometry assay of SIRT1 activity
- Format: biochemical
- run.parameters: Trp assay; percent maximum fold activation; read-out: Trp % Fold Act
Overview of recorded Emax for various molecules

[
  {
    "molecule": "Cc1cc(NC(=O)c2cnc3ccc(-c4ccccc4F)nn23)cc(C)n1",
    "Emax": "< 350%"
  },
  {
    "molecule": "Cc1nn2ccc(-c3ccccc3C(F)(F)F)nc2c1C(=O)Nc1ccc(F)cn1",
    "Emax": "< 350%"
  },
  {
    "molecule": "Cc1nc2ccc(-c3ccccc3C(F)(F)F)nn2c1C(=O)Nc1ccnn1C(C)(C)C",
    "Emax": "< 350%"
  },
  {
    "molecule": "Cc1nc2ccc(-c3ccccc3C(F)(F)F)nn2c1NC(=O)c1ccccn1",
    "Emax": "< 350%"
  },
  {
    "molecule": "N#Cc1ccccc1-c1ccc2ncc(NC(=O)c3cnccn3)n2n1",
    "Emax": "< 350%"
  },
  {
    "molecule": "O=C(Nc1ccncn1)c1cnc2ccc(N3CCC[C@H](F)C3)nn12",
    "Emax": "≥ 350%"
  },
  {
    "molecule": "Cc1cccnc1NC(=O)c1c(C)nn2ccc(-c3ccccc3C(F)(F)F)nc12",
    "Emax": "≥ 350%"
  },
  {
    "molecule": "Cc1cc(C)nc(NC(=O)c2cnn3ccc(-c4ccccc4OC(F)(F)F)nc23)n1",
    "Emax": "< 350%"
  },
  {
    "molecule": "CC(C)c1nccc(C(=O)Nc2cnn3ccc(-c4ccccc4OC(F)(F)F)nc23)n1",
    "Emax": "< 350%"
  },
  {
    "molecule": "Cc1cccc(NC(=O)c2c(C)nn3ccc(-c4ccccc4C(F)(F)F)nc23)n1",
    "Emax": "≥ 350%"
  },
  {
    "molecule": "COc1cc(NC(=O)c2c(C)nn3ccc(-c4ccccc4C(F)(F)F)nc23)ncn1",
    "Emax": "< 350%"
  },
  {
    "molecule": "O=C(Nc1ccncn1)c1cnc2ccc(N3CCC(F)(F)C3)nn12",
    "Emax": "< 350%"
  },
  {
    "molecule": "Cc1nc2ccc(-c3cccc(OC[C@H](O)CO)c3)nn2c1C(=O)Nc1ccccn1",
    "Emax": "≥ 350%"
  },
  {
    "molecule": "O=C(Nc1cncc(F)c1)c1cnn2ccc(-c3ccccc3C(F)(F)F)nc12",
    "Emax": "≥ 350%"
  },
  {
    "molecule": "COc1cccc(NC(=O)c2cnc3ccc(-c4ccccc4Cl)nn23)n1",
    "Emax": "< 350%"
  },
  {
    "molecule": "Cc1nc2c(C)cc(-c3ccccc3C(F)(F)F)nn2c1C(=O)Nc1ccnc(C(C)C)n1",
    "Emax": "≥ 350%"
  },
  {
    "molecule": "O=C(Nc1ccccn1)c1cnc2ccc(-c3ccccc3OC[C@H](O)CO)nn12",
    "Emax": "≥ 350%"
  },
  {
    "molecule": "N#Cc1ccccc1-c1ccc2ncc(NC(=O)c3cccc(N4CCC4)n3)n2n1",
    "Emax": "< 350%"
  },
  {
    "molecule": "Cc1nc2ccc(N3CC[C@H](N(C)C)C3)nn2c1C(=O)Nc1ccc(F)cn1",
    "Emax": "< 350%"
  },
  {
    "molecule": "Cc1cc(NC(=O)c2c(C)nc3c(OC[C@H](O)CO)cc(-c4ccccc4C(F)(F)F)nn23)cc(C)n1",
    "Emax": "≥ 350%"
  },
  {
    "molecule": "CO[C@H]1CCN(c2ccc3ncc(C(=O)Nc4ccc(F)cn4)n3n2)C1",
    "Emax": "< 350%"
  },
  {
    "molecule": "Cc1ccnc(NC(=O)c2c(C)nc3c(OC[C@H](O)CO)cc(-c4ccccc4C(F)(F)F)nn23)c1",
    "Emax": "≥ 350%"
  },
  {
    "molecule": "Cc1cccnc1NC(=O)c1cnn2ccc(-c3ccccc3OC(F)(F)F)nc12",
    "Emax": "≥ 350%"
  },
  {
    "molecule": "C[C@@H]1CN(c2ccc3ncc(C(=O)Nc4cccnc4)n3n2)C[C@H](C)O1",
    "Emax": "≥ 350%"
  },
  {
    "molecule": "O=C(Nc1ccnc(OCC(O)CO)c1)c1cnc2ccc(-c3ccccc3F)nn12 (stereo not shown)",
    "Emax": "< 350%"
  },
  {
    "molecule": "O=C(Nc1cnc2ccc(-c3ccccc3OC(F)(F)F)nn12)c1ncccn1",
    "Emax": "≥ 350%"
  },
  {
    "molecule": "O=C(Nc1cncc(F)c1)c1cnc2ccc(N3CCCC(C(F)(F)F)C3)nn12 (stereo not shown)",
    "Emax": "≥ 350%"
  },
  {
    "molecule": "Cc1cncc(NC(=O)c2c(C)nc3c(OC[C@H](O)CO)cc(-c4ccccc4C(F)(F)F)nn23)c1",
    "Emax": "≥ 350%"
  },
  {
    "molecule": "O=C(Nc1cccc(N2CCOCC2)n1)c1cnc2ccc(-c3cccc(OCC(O)CO)c3)nn12 (stereo not shown)",
    "Emax": "< 350%"
  },
  {
    "molecule": "CC1CCN(c2ccc3ncc(C(=O)Nc4cccnc4)n3n2)C1 (stereo not shown)",
    "Emax": "≥ 350%"
  },
  {
    "molecule": "O=C(Nc1ccncn1)c1cnc2ccc(N3CCC(F)(F)CC3)nn12",
    "Emax": "< 350%"
  },
  {
    "molecule": "O=C(Nc1ccc(F)cn1)c1cnc2ccc(N3CC(F)(F)C3)nn12",
    "Emax": "< 350%"
  },
  {
    "molecule": "CC1CCN(c2ccc3ncc(C(=O)Nc4cccnn4)n3n2)C1 (stereo not shown)",
    "Emax": "≥ 350%"
  },
  {
    "molecule": "O=C(Nc1cnn2ccc(-c3ccccc3C(F)(F)F)nc12)c1cccc(CN2CCOCC2)n1",
    "Emax": "< 350%"
  }
]
